# Test settings: in n-butanol, 318.15 K
Quantity name: solubility (mole fraction)
Form field (numeric): enter value without unit.

Lookup result for CC(=O)O[C@]1(C(C)=O)CC[C@H]2[C@@H]3C[C@H](C)C4=CC(=O)CC[C@]4(C)[C@H]3CC[C@@]21C ; measured solubility (mole fraction): 0.0059

* * *

# Test settings: in n-propyl acetate, 288.15 K
Quantity name: solubility (mole fraction)
Form field (numeric): enter value without unit.

Lookup result for CC(=O)O[C@]1(C(C)=O)CC[C@H]2[C@@H]3C[C@H](C)C4=CC(=O)CC[C@]4(C)[C@H]3CC[C@@]21C ; measured solubility (mole fraction): 0.00446

* * *

# Test settings: in ethanol, 303.15 K
Quantity name: solubility (mole fraction)
Form field (numeric): enter value without unit.

Lookup result for CC(=O)O[C@]1(C(C)=O)CC[C@H]2[C@@H]3C[C@H](C)C4=CC(=O)CC[C@]4(C)[C@H]3CC[C@@]21C ; measured solubility (mole fraction): 0.00168

* * *

# Test settings: in n-propanol, 318.15 K
Quantity name: solubility (mole fraction)
Form field (numeric): enter value without unit.

Lookup result for CC(=O)O[C@]1(C(C)=O)CC[C@H]2[C@@H]3C[C@H](C)C4=CC(=O)CC[C@]4(C)[C@H]3CC[C@@]21C ; measured solubility (mole fraction): 0.00508

* * *

# Test settings: in methyl acetate, 313.15 K
Quantity name: solubility (mole fraction)
Form field (numeric): enter value without unit.

Lookup result for CC(=O)O[C@]1(C(C)=O)CC[C@H]2[C@@H]3C[C@H](C)C4=CC(=O)CC[C@]4(C)[C@H]3CC[C@@]21C ; measured solubility (mole fraction): 0.00999

* * *

# Test settings: in n-butanol, 303.15 K
Quantity name: solubility (mole fraction)
Form field (numeric): enter value without unit.

Lookup result for CC(=O)O[C@]1(C(C)=O)CC[C@H]2[C@@H]3C[C@H](C)C4=CC(=O)CC[C@]4(C)[C@H]3CC[C@@]21C ; measured solubility (mole fraction): 0.00277

* * *

# Test settings: in isopropyl acetate, 278.15 K
Quantity name: solubility (mole fraction)
Form field (numeric): enter value without unit.

Lookup result for CC(=O)O[C@]1(C(C)=O)CC[C@H]2[C@@H]3C[C@H](C)C4=CC(=O)CC[C@]4(C)[C@H]3CC[C@@]21C ; measured solubility (mole fraction): 0.00234

* * *

# Test settings: in n-butanol, 313.15 K
Quantity name: solubility (mole fraction)
Form field (numeric): enter value without unit.

Lookup result for CC(=O)O[C@]1(C(C)=O)CC[C@H]2[C@@H]3C[C@H](C)C4=CC(=O)CC[C@]4(C)[C@H]3CC[C@@]21C ; measured solubility (mole fraction): 0.0046

* * *

# Test settings: in isobutanol, 303.15 K
Quantity name: solubility (mole fraction)

Lookup result for CC(=O)O[C@]1(C(C)=O)CC[C@H]2[C@@H]3C[C@H](C)C4=CC(=O)CC[C@]4(C)[C@H]3CC[C@@]21C ; measured solubility (mole fraction): 0.00269

* * *

# Test settings: in isobutyl acetate, 288.15 K
Quantity name: solubility (mole fraction)
Form field (numeric): enter value without unit.

Lookup result for CC(=O)O[C@]1(C(C)=O)CC[C@H]2[C@@H]3C[C@H](C)C4=CC(=O)CC[C@]4(C)[C@H]3CC[C@@]21C ; measured solubility (mole fraction): 0.0039

* * *

# Test settings: in ethyl acetate, 313.15 K
Quantity name: solubility (mole fraction)
Form field (numeric): enter value without unit.

Lookup result for CC(=O)O[C@]1(C(C)=O)CC[C@H]2[C@@H]3C[C@H](C)C4=CC(=O)CC[C@]4(C)[C@H]3CC[C@@]21C ; measured solubility (mole fraction): 0.00887
